Biological target: T1, RXRA ΔAB;RARA ΔAB (Mus musculus;Mus musculus, UniProt P28700;P11416 135-467;84-462, |)
T1 sequence 1: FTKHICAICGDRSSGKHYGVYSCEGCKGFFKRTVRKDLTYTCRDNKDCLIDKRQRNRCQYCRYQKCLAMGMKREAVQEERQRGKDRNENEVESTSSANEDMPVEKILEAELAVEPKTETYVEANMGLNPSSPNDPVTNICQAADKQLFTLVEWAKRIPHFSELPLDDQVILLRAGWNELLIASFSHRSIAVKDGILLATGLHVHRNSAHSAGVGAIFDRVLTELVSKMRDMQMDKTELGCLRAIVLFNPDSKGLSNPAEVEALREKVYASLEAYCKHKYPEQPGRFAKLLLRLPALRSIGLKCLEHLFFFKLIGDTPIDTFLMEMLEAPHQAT
T1 sequence 2: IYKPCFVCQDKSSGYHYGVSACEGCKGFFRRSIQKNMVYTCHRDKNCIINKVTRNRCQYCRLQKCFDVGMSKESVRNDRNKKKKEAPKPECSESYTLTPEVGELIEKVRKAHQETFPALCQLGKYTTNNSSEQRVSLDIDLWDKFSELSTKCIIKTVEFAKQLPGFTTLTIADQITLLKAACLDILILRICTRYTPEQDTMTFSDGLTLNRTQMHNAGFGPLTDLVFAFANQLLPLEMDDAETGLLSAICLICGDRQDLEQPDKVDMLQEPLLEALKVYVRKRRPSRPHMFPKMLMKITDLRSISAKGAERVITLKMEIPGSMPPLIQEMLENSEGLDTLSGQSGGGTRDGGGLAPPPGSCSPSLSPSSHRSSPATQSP
Assay: FRET titration
RECORDED_ENDPOINT: Kd (nM)
Write the value in nM as a bare number.

These recorded examples may help you get a feel for the data.
> print(dat)
                                     binder  recorded.endpoint  obs.value
1  Rarb2 DR5 TAMRA (dsDNA) DNA 1: AGGGTTCACCGAAAGTTCACT DNA 2: AGTGAACTTTCGGTGAACCCT                 Kd        800
2  Ramp2 DR1 (dsDNA) DNA 1: TGAGTTCAAGGGTCAAT DNA 2: ATTGACCCTTGAACTCA                 Kd        500

Could you now look at the following binder, please?
Noted for Socs3 DR0 (dsDNA) DNA 1: AGGGGTCAAGGTCAAA DNA 2: TTTGACCTTGACCCCT : its Kd reads 2700

Every entry's value here was drawn from paper PMC7515732.
